assay: yeast display, Sf9 membrane polyspecificity reagent, FACS + sequencing; frameworks hold sequencing errors
property_measured: polyreactivity (PSR sort gate)

Known polyreactivity (PSR sort gate) results, listed for orientation:
QVQLVESGGGLVQAGGSLRLSCAASGSIYVSYAMGWYRQAPGKERELVATITTSTGSTYADSVKGRFTISRDNAKNTVYLQMNSLKPEDTAVYYCAARYQPWLNDDFDSWGQGTQVTVSS: low polyreactivity
QVQLVESGGGLVQAGGSLRLSCAASGRTFRYYAIGWYRQAPGKERELVATISKSGGSTYYADSVKGRFTISRDNAKNTVYLQMNSLKPEDTAVYYCAAVGPYRWYDYWGQGTQVTVSS: high polyreactivity
QVQLVESGGGVVQAGGSLRLSCAASGITFSYYTMGWSRQAPGKERELVAAINWTGGDTYYADSVKGRFTISRDNAKNTVYLQMNSLNPEDTAVYYCNADYPYFYRFTAEYDYWGQGPQVTVSS: low polyreactivity
QVQLVESGGGLVQAGGSLRLSCAASGRTFRNNAMGWYRQAPGKERELVAAISSRGGSTYYADSVKGRFTISRDNAKNTVYLQMNSLKPEDTAVYYCADDHSRYGDYWGQGTQVTVSS: high polyreactivity
QVQLVESGGGLVQAGGSLRLSCAASGFIFTDYAMGWYRQAPGKEREFVAAIDWSGGNTYYADSVKGRFTISRDHAKNTVYLQMNRLKPEDTAVYYCNAGDYFVRFVYYWDDERYDYWGQGTQVTVSS: low polyreactivity

Count: 6. Required value per item: polyreactivity (PSR sort gate).
1. QVQLVESGGGLVQAGGSLRLSCAASGNIFDEYTMGWYRQAPGKERELVAAISWRGGSTYYADSVKGRFTISRDNAKNTVYLQMNSLKPEDTAVYYCNKAYPADYDYWGQGTQVTVSS
2. QVQHEESGGGLVQAGGSLRLSCAASGRIFFGKVMGGYRQAPGTERELVAVITSGGNTNYADSVKGRFTISRDNAKNTVYLQMHSLKPEDTAVYYCATAVVAGVWGYDYWGQGTQVTVSS
3. QVQLVESGGGLVQAGGSLRLSCAASGRIFGSYAMGWYRQAPGKERELVAAITRSGGSTYYADSVKGRFTISRDNAKNTVYLQMNSLKPEDTAVYYCAARYGIRYAYFGRFDYWGQGTQVTVSS
4. QVQLVESGGGLVQAGGSLRLSCAASGSIFRYYAMGWYRQAPGKERELVATITFNGGNTYYADSVKGRFTISRDNAKNTVYLQMNSLKPEDTAVYYCAATYVRRGPTRYYYWGQGTQVTVSS
5. QVQLVESGRGLVQAGGSLRLSCAPSGFTFNVNAMGWYRQAPGKERELVAAISSSGTRTYYADSVKGRFTISRDNAKNTFYLQMNSLKPEDTAVYYCGASGQAYSGDRMYYWGQGTQVTVSS
6. QVQLVESGGGLVQAGGSLRLSCAASGSTFYPYAMGWYRQAPGKERELVADITNSGSTYYADSVKGRFTISRDNAKNTVYLQMNSLKPEDTAVYYCAARVYSVADYYYWGQGTQVTVSS

low polyreactivity
low polyreactivity
high polyreactivity
high polyreactivity
high polyreactivity
low polyreactivity

###

assay: yeast display, Sf9 membrane polyspecificity reagent, FACS + sequencing; frameworks hold sequencing errors
property_measured: polyreactivity (PSR sort gate)

Known polyreactivity (PSR sort gate) results, listed for orientation:
QVQLVESGGGLVQAGRSLRLSCAASGNTFWFYGMGWYRQAPGKVRELVAAITSGGSTDYADSVKGRFTISRENAKNTVSLQMNSLKPEDTAVYYCAAEPVAYYGSSYGYWGQGTQVTVSS: low polyreactivity
QVQLVESGGGLVQAGGSLRLSCAASGSTLGVNAMGRYRQAPGKEREFVAAITGRGGNSYYADSVKGRFTISRDNAKNTVYLKMNSLKPEDTAVYYCAAERQPYRTSSYNYWGQGSQVTVSS: high polyreactivity
QVQLVESGGGLVQAGGSLRLSCAASGSIFTPYAMGWYRQAPGTEREFVAVISWRVDSTYYADSVKGRFTISRDNAKNTVYLQMNSLKPEDTAVYYCAAKSYLLAPFGSGNRWSRYDYWGQGTQVTVSS: high polyreactivity
QVQLVESGGGLVQAGGSLRLSCAACGRILWTYAMGLYRQAPGKERELVADISRTGSTNYADSVKGRFTISRDNAKNTVYLQMNSLKPEDTAVYYCAADRWAHTHRLGYWGQGTQVTVSS: low polyreactivity
QVQLVESGGGLVQAGGSLRLSCAASGPTFYYYAMGWYRQEPGKERELVAAIRVRGGSTYYADSVKGRFTISRDNAKNTVYLQMNSLKPEDTAVYYCAADHTFYGVHKYDYWGQGTQVTVSS: low polyreactivity

Count: 6. Required value per item: polyreactivity (PSR sort gate).
1. QVQLVESGGGLVQTGGSLRLSCAASGRIFNGNAMGWYRQAPGKERELVAAITKSGGNTYYADSVKGRFTISRDNAKNTVYLEMNSLKQEDTAVYYCNAYYSLGAWKGAYDYWGQGTQVTVSS
2. QVQLVESGGGLVQAGGSLRLSCAASGRTFPGYAMGWYRQAPGKERELVAAISNSGGRTYYADSVKGRFTISRDYAKNTVYLQMNSLKPEDTAVYYCNATTDNGSNKRYYYWGQGTQVTVSS
3. QVQLVESGGGLFKAGGSLRLSCAASGRTFRGYTMGWYRQAPGKERELVAAITSGTRTNYADSVKGRFTISRDNAKNTVYLQMNSLKPEYTAVYYGAARDYIRPRYRPYDYWGHGTQVTVSS
4. QVQLVESGGGLVQAGGSLRLSCAASGIIFGYNAMGWYRQAPGKERELVAAISYGGGRSYYADSVKGRFTISRDNAKNTVYFQMNSLKPEDTAVYYCAAQYFASRSYGYDYWGQGTQVTVSS
5. QVQLVESGGGLVQAGGSLRLSCAASGRIFAKNTMGWYRQAPGKERELVAAITWSSGNTDYADSVKGRFTISRDNAKNTVYLQMNSLKPEDTAVYYCAAYPRWTYWGYVERYYWGQGTQVTVSS
6. QVQLVESGGGLVQAGGSLRLSCAASGYTLRIYAMGWYRQAPGKERELVAAISRGGGTTRYADSVKGRFTISRDNAKNTVYLQMNSLKPEDTAVYYCNKDVYGYSRTGPRGYDYWGQGTQVTVSS

low polyreactivity
high polyreactivity
high polyreactivity
high polyreactivity
high polyreactivity
high polyreactivity

###

test: yeast display, Sf9 membrane polyspecificity reagent, FACS + sequencing; frameworks hold sequencing errors
property_measured: polyreactivity (PSR sort gate)

Known polyreactivity (PSR sort gate) results, listed for orientation:
QVQLVESGGGLVQAGGSLRLSCAASGGIFIFYAMGWYRQATGKERELVAASSNVSSTNYADSVKGRFTISRDNAKNTVYLQMNSLKPEDTAVYYCAAYYYYFYHKVIWYELDYWGQGTQVTVSS: low polyreactivity
QVQLVESGGGLVQAGGSLRLSCTASGIIFGTYAMGLYRQAPGKERELVAAISSSGVSTYYADSVKGRFTISRDNAKNTVYLQMNSLKPEDTAVYYCAAPLHYGYYYWGQGTQVTVSS: high polyreactivity
QVQLVESGGGLVQAGGTLRLSCAASGRTFPLYAMGWYRQAPGKERELVAAISSSGGNTYYADSVKGRFTISRDNAKNTVYLQMNSLKPEDTAVYYCNADVSTNSDRLQLDYWGQGTQVTVSS: low polyreactivity
QVQHVESGGGLVQAGGSLRLSCAASGRIFVPYGMGWYRQAPGKERELVAAISLRGGTTYYADSVKGRFTISRDNAKNTVYLQMNSLKPEDTAVYYCAARGYVSVWRPYHWFVAGDYWGQGTQVTVSS: high polyreactivity
QVRLVESGGGLVQAGGSLRLSCAASGRIFVYNAMGWYRQPPGKERELVASISWSGDSTYADSVKGRFTISRDNAKNTVYLQMNSLKPEDTAVYYCAAYSQADYQNMDYWGQGTQVTVSS: low polyreactivity

Count: 5. Required value per item: polyreactivity (PSR sort gate).
1. QVQLVESGGGLVQAGGSLRLICAASGRTFWNYAMGWYRQAPGKERELVAVISFSDGSTYYADSVKGRFTISRDNAKNTVYLQMNSLKPEDTAVYYGAAKGPRRWGSGFDYWGQGTQVTVSS
2. QVQLVESGGGLVQAGGSLRLSCAASGRIFDLYAMRWYRQAPGKESELVAAISIRGGSTYYADSVKGRFTISRDNAKNTVYLQMNSLKPEDTAVYYCAAEGPWLSDEYDYWGQGTQVTVSS
3. QVQLVESGGGLVQAGGSLRLSCAASGGTFHGYAMGWYRQAPGKERELVAAINWSGTSTYYADSVKGRFTISRDNAKNTVYLQMNRLKPEDTAVYYCAAAYFRGTYYYWGQGTQVTVSS
4. QVQLVESGACLVQAGGSLRLSCAASGSIFGFYAMGWYRQAPGQERELVAGISYGDSSTYYADSVKGRFTISRDNAKNTVYLQMNSLKPEDTAVYYCAAGHRQKYNWGRYDYWGQGTQVTVSS
5. QVQLEESGGGLVQAGVSLRLSCAASGFTFDRYAMGSYRQAPAKEREMVAALSRSGTSTYYADSVKGRFTISRDNAKYTVYLQMNSLKPEDNAVYYCATRYTVYFPSRLSQYDYWGQGTQVTVSS

["low polyreactivity", "low polyreactivity", "high polyreactivity", "low polyreactivity", "high polyreactivity"]

Read off the recorded polyreactivity (PSR sort gate) for `QVQLVESGGGLVQAGGSLRLSCAASGSTFRNYAMGWYRQAPGKERELVAAITKRGGTTYYADSVKGRFTISRDNAKNTVYLQMNSLKPEDTAVYYCATRQLSKVKDMDYWGQGTQVTVSS` high polyreactivity
